# Tested on: SF-268
# experiment_notes: Growth inhibition of human SF268 cells after 48 hrs by sulforhodamine B assay
# Assay type: functional
# run_conditions: SF-268, 48 h
experimental_readout: GI50 (µg/mL)

>>> measured_result("COc1ccc(/C=C\\c2cc(OC)cc(OC)c2)cc1 [8Z-3,4',5-TRIMETHOXYSTILBENE]")
0.0044
>>> measured_result("Oc1ccc(/C=C\\c2cc(O)cc(O)c2)cc1 [CIS-RESVERATROL]")
5
>>> measured_result("COc1ccc(/C=C/c2cc(OC)cc(OC)c2)cc1 [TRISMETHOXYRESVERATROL]")
0.56

---

Below is a list of entries, each paired with its recorded GI50 value.
# System: SF-268
# experiment_notes: Growth inhibition of human SF268 cells after 48 hrs by sulforhodamine B assay
# Format: functional
# run_conditions: SF-268, 48 h
experimental_readout: GI50

>>> measured_result("COc1cc(/C=C/c2ccc(OC)c(OP(=O)([O-])[O-])c2OP(=O)([O-])[O-])cc(OC)c1OP(=O)([O-])[O-].[Na+].[Na+].[Na+].[Na+].[Na+].[Na+]")
"> 10 µg/mL"
>>> measured_result("COc1ccc(/C=C\\c2cc(OC)c(OC)c(OC)c2)cc1O [COMBRETASTATIN A4]")
"> 0.01 µg/mL"
>>> measured_result("COc1cc(/C=C/c2ccc(OC)c(O)c2O)cc(OC)c1O")
"> 10 µg/mL"
